biological target: HCV NS5B RNA-dependent RNA polymerase (Hepatitis C virus genotype 1b)
Sequence (P26663 2420-2955): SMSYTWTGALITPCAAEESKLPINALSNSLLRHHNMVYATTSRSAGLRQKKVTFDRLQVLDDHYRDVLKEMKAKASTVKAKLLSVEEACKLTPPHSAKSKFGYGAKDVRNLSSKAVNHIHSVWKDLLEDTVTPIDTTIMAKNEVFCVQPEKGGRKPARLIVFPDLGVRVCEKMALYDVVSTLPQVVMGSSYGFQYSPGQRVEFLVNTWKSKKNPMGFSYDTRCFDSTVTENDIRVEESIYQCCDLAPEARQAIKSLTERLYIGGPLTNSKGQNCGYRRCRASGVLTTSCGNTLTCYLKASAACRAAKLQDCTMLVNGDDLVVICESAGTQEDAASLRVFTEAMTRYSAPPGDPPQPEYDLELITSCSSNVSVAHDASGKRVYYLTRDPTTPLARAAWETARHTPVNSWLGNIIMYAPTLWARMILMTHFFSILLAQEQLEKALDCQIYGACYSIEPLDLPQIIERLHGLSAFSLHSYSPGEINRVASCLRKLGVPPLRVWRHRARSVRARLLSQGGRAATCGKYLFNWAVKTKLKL
pIC50: −log10 of the molar value.
OBSERVATION_TYPE: pIC50

Ask: API: value(readout=pIC50, system=HCV NS5B RNA-dependent RNA polymerase (Hepatitis C virus genotype 1b)) for record C[C@@]1(O)[C@H](O)[C@@H](COP(=O)(O)OP(=O)(O)OP(=O)(O)O)O[C@H]1n1cc2c3c(ncnc31)NC(=O)c1sccc1-2
Result: > 6.00

Ask: API: value(readout=pIC50, system=HCV NS5B RNA-dependent RNA polymerase (Hepatitis C virus genotype 1b)) for record C[C@@]1(O)[C@H](O)[C@@H](COP(=O)(O)OP(=O)(O)OP(=O)(O)O)O[C@H]1n1cc2c3c(ncnc31)NCc1sccc1-2
Result: 4.52 to 6.00

Ask: API: value(readout=pIC50, system=HCV NS5B RNA-dependent RNA polymerase (Hepatitis C virus genotype 1b)) for record C[C@@]1(O)[C@H](O)[C@@H](COP(=O)(O)OP(=O)(O)OP(=O)(O)O)O[C@H]1n1cc2c3c(ncnc31)NC(=O)c1ccccc1-2
Result: > 6.00

Ask: API: value(readout=pIC50, system=HCV NS5B RNA-dependent RNA polymerase (Hepatitis C virus genotype 1b)) for record C[C@@]1(O)[C@H](O)[C@@H](COP(=O)(O)OP(=O)(O)OP(=O)(O)O)O[C@H]1n1cc2c3c(ncnc31)NCc1ccccc1-2
Result: 4.52 to 6.00
